Observed IC50 for Glycogen synthase kinase-3 beta (Homo sapiens), reported per entry below.
Express it in µM; write the number only.

Report IC50 for COc1cnc(COc2ccc(F)c(F)c2)cc1-c1cc2c([nH]1)CCNC2=O please. 10.8

Check COc1cnc(COc2ccc(F)cc2C)cc1-c1cc2c([nH]1)CCNC2=O too. 53.3

Next up: COc1cnc(/C=C/c2ccc(F)cc2)nc1-c1cc2c([nH]1)CCNC2=O 1.22

Follow-up entry: COc1cnc(Nc2ccccc2)nc1-c1cc2c([nH]1)CCNC2=O 0.016

---

study.target: Casein kinase I isoform gamma-2 (Homo sapiens, UniProt P78368)
Sequence (P78368 whole entry, canonical isoform): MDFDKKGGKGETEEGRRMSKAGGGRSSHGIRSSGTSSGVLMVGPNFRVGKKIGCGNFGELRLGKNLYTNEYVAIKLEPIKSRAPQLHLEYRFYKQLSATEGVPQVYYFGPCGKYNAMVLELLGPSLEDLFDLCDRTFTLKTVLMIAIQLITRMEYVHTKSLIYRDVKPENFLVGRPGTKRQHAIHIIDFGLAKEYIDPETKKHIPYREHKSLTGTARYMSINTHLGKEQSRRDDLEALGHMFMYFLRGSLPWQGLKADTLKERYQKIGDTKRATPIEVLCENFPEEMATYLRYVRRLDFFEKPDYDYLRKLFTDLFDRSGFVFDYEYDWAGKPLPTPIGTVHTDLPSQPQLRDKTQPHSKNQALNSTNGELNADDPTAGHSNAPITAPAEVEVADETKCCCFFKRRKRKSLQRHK
test.summary: Inhibition of human CK1-gamma2 in HEK293 cells assessed as inhibition of doxcycline-induced LRP6 phosphorylation after 2 hrs by electrochemiluminescence analysis
Type: cell-based
I'd appreciate it if you could supply IC50 values for the items below.
Field format: number, assumed nM, no unit text.

Missing value: IC50, Casein kinase I isoform gamma-2 (Homo sapiens, UniProt P78368), entry COc1cnc(-c2cnc3ccccc3c2)nc1-c1cc2c([nH]1)CCNC2=O . Fill in? 348

And COc1cnc(COc2ccc(F)c(F)c2)cc1-c1cc2c([nH]1)CCNC2=O ? 200

Another molecule to look at: COc1cnc(COc2cc(F)c(F)cc2C)cc1-c1cc2c([nH]1)CCNC2=O 87

These data points were gathered from ChEMBL document CHEMBL2203014.
